- assay-comment: Steady-state plasma pharmacokinetics, group B
- Type: in vivo, human
- study-conditions: human, plasma, oral, 1000 mg daily, Tmax, Group B, 1,000 mg daily, Patient 1
outcome-measure: Tmax (h)
Write the number in h without appending the unit.

Prompt line: Fill in: Tmax of Cn1cc(C2=C(c3cn(C4CCN(Cc5ccccn5)CC4)c4ccccc34)C(=O)NC2=O)c2ccccc21 [Enzastaurin] is ___
Response line: 4

====

- assay-comment: Steady-state plasma pharmacokinetics, group B
- Assay type: in vivo, human
- study-conditions: human, plasma, oral, 500 mg, Cmax,ss, Group B, 500 mg twice daily, Patient 2
outcome-measure: Cmax (µM)
Write the number in µM without appending the unit.

Prompt line: Fill in: Cmax of Cn1cc(C2=C(c3cn(C4CCN(Cc5ccccn5)CC4)c4ccccc34)C(=O)NC2=O)c2ccccc21 is ___
Response line: 4.09

====

- assay-comment: Steady-state plasma pharmacokinetics, group A
- Format: in vivo, human
- study-conditions: human, plasma, oral, 400 mg
outcome-measure: Tmax
Please provide the amount together with its unit, number first.

Prompt line: Fill in: Tmax of Cn1cc(C2=C(c3cn(C4CCN(Cc5ccccn5)CC4)c4ccccc34)C(=O)NC2=O)c2ccccc21 [Enzastaurin] is ___
Response line: 4.03 h

====

- assay-comment: Steady-state plasma pharmacokinetics, group B
- Assay type: in vivo, human
- study-conditions: human, plasma, oral, 500 mg, Tmax, Group B, 500 mg twice daily, Patient 2
outcome-measure: Tmax (h)
Write the number in h without appending the unit.

Prompt line: Fill in: Tmax of Cn1cc(C2=C(c3cn(C4CCN(Cc5ccccn5)CC4)c4ccccc34)C(=O)NC2=O)c2ccccc21 is ___
Response line: 4

====

- assay-comment: Steady-state plasma pharmacokinetics, group A
- Assay type: in vivo, human
- study-conditions: human, plasma, oral, 250 mg
outcome-measure: Tmax (h)
Write the number in h without appending the unit.

Prompt line: Fill in: Tmax of Cn1cc(C2=C(c3cn(C4CCN(Cc5ccccn5)CC4)c4ccccc34)C(=O)NC2=O)c2ccccc21 is ___
Response line: 6.03

====

- assay-comment: Steady-state plasma pharmacokinetics, group A
- Format: in vivo, human
- study-conditions: human, plasma, oral, 500 mg
outcome-measure: Cmax (nM)
Write the number in nM without appending the unit.

Prompt line: Fill in: Cmax of Cn1cc(C2=C(c3cn(C4CCN(Cc5ccccn5)CC4)c4ccccc34)C(=O)NC2=O)c2ccccc21 [Enzastaurin] is ___
Response line: 979

====

- assay-comment: Steady-state plasma pharmacokinetics, group B
- Format: in vivo, human
- study-conditions: human, plasma, oral, 1000 mg daily, Cmax,ss, Group B, 1,000 mg daily, Patient 2
outcome-measure: Cmax
Please provide the amount together with its unit, number first.

Prompt line: Fill in: Cmax of Cn1cc(C2=C(c3cn(C4CCN(Cc5ccccn5)CC4)c4ccccc34)C(=O)NC2=O)c2ccccc21 [Enzastaurin] is ___
Response line: 2730 nM

====

- assay-comment: Steady-state plasma pharmacokinetics, group A
- Format: in vivo, human
- study-conditions: human, plasma, oral, 500 mg
outcome-measure: Tmax (h)
Write the number in h without appending the unit.

Prompt line: Fill in: Tmax of Cn1cc(C2=C(c3cn(C4CCN(Cc5ccccn5)CC4)c4ccccc34)C(=O)NC2=O)c2ccccc21 [Enzastaurin] is ___
Response line: 2.08

====

- assay-comment: Steady-state plasma pharmacokinetics, group B
- Format: in vivo, human
- study-conditions: human, plasma, oral, 1000 mg daily, Cmax,ss, Group B, 1,000 mg daily, Patient 1
outcome-measure: Cmax (µM)
Write the number in µM without appending the unit.

Prompt line: Fill in: Cmax of Cn1cc(C2=C(c3cn(C4CCN(Cc5ccccn5)CC4)c4ccccc34)C(=O)NC2=O)c2ccccc21 [Enzastaurin] is ___
Response line: 3.01
